system: SARS-CoV-2; assay: Antiviral activity against SARS-CoV-2 infected in Vero E6 cells; type: functional, organism-based; conditions: Severe acute respiratory syndrome coronavirus 2, Vero C1008
experimental-readout: pEC50
Entry type: numeric. Quantity: pEC50, the -log10 of concentration in molar units.

[2H][C@](C(=O)N[C@@H](C)c1ccc(F)cc1)(c1cccnc1)N(C(=O)C(C)=O)c1ccc2c(c1)oc1ccccc12	6.05

Okay, now this compound:
## Task What does the data say about its pEC50? Entry: "C[C@H](NC(=O)[C@@H](c1cccnc1)N(C(=O)C(Cl)Cl)c1ccc(-c2ccccc2)cc1)c1ccccc1"
## Result 6.17
